Just for reference, paper PMC6774072 is where these values come from.

biological target: Sirt2 (Homo sapiens); construct: Sirt2_56−356; made in house; assay: fluorescence-based deacetylase assay with Z-Lys(acetyl)-AMC (ZMAL) substrate; assay type: biochemical; conditions: @ 10 µM; percent inhibition relative to controls
Readout Kind: inhibition at 10 µM (%)

a: COc1ccc(/C=C/c2cncc(C(N)=O)c2)cc1
b: COc1cc(C)c(/C=C/c2cncc(C(N)=O)c2)c(C)c1
c: NC(=O)c1cncc(/C=C/c2cccc(NC(=O)c3ccc(OCc4ccccc4)cc3)c2)c1
Using measured inhibition at 10 µM, arrange the molecules from above in descending sequence. Give the labels in the order requested.
a, b, c

###

Target: Sirt3 (Homo sapiens, UniProt Q9NTG7)
Construct: Sirt3_118−395; made in house
Assay: fluorescence-based deacetylase assay with Z-Lys(acetyl)-AMC (ZMAL) substrate
Format: biochemical
Settings: photostationary state (PSS) after 5 minutes of 365 nm irradiation; read-out: Sirt3 inhibition IC50
Experimental: The influence on deacetylase activity of three human sirtuin isoforms (Sirt1–3) was determined in a fluorescence-based assay, using Z-Lys(acetyl)-AMC (ZMAL) as a substrate. […] A recently developed fluorescence polarization (FP)-based assay enables mapping of ligand binding to this specific binding site. […] Bioassay: The inhibitory effect of compounds 2a–h, 4a/b, 8a and 11 on Sirt1–3 was detected via a previously reported fluorescence based assay. […]
Readout Kind: pIC50
Entry type: numeric. Quantity: pIC50, the -log10 of concentration in molar units.

Which pIC50 value belongs to NC(=O)c1cncc(N=Nc2ccc(F)cc2)c1 [Compound 11, 5-[(4-Fluorophenyl)diazenyl]nicotinamide] ?
4.52

###

Target: Sirt3 (Homo sapiens, UniProt Q9NTG7)
Construct: Sirt3_118−395; made in house
Sequence (Q9NTG7 118-395): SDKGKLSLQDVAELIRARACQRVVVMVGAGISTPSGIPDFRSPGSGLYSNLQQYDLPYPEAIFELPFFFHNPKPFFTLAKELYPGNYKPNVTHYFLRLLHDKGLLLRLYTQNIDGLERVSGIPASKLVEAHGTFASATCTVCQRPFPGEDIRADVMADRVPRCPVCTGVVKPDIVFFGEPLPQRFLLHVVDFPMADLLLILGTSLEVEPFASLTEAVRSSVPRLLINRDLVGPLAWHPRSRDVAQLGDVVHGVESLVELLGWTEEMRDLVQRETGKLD
Assay: fluorescence-based deacetylase assay with Z-Lys(acetyl)-AMC (ZMAL) substrate
Format: biochemical
Conditions: thermal equilibrium (∆), non-irradiated; read-out: Sirt3 inhibition IC50
Readout Kind: IC50 (µM)
Number only, in µM; omit the unit.

Which IC50 value belongs to NC(=O)c1cncc(N=Nc2ccc(F)cc2)c1 [Compound 11, 5-[(4-Fluorophenyl)diazenyl]nicotinamide] ?
27.5

###

Biological target: Sirt2 (Homo sapiens, UniProt Q8IXJ6)
Construct: Sirt2_56−356; made in house
Sequence (Q8IXJ6 56-356): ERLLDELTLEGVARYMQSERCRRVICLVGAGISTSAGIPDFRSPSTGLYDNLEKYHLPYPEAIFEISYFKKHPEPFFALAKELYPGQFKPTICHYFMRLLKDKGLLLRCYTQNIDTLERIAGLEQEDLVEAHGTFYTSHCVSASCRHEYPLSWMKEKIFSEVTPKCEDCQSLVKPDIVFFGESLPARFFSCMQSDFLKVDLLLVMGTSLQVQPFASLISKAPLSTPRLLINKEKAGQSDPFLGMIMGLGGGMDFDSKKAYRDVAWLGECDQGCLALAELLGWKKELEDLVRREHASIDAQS
Assay: fluorescence-based deacetylase assay with Z-Lys(acetyl)-AMC (ZMAL) substrate
Format: biochemical
Conditions: thermal equilibrium (∆), non-irradiated; read-out: Sirt2 inhibition IC50
Readout Kind: pIC50
Entry type: numeric. Quantity: pIC50, the -log10 of concentration in molar units.

Param readout = pIC50; param system = Sirt2 (Homo sapiens, UniProt Q8IXJ6); param query = NC(=O)c1cncc(N=Nc2ccc(F)cc2)c1 [Compound 11, 5-[(4-Fluorophenyl)diazenyl]nicotinamide] ; response: value
4.72
